- Measurement target: T1, integrin αVβ5 (UniProt P06756 31-992; P18084 24-719)
- T1 construct: Coated on the ELISA plate
- T1 sequence (P06756 31-992, chain 1 of 2): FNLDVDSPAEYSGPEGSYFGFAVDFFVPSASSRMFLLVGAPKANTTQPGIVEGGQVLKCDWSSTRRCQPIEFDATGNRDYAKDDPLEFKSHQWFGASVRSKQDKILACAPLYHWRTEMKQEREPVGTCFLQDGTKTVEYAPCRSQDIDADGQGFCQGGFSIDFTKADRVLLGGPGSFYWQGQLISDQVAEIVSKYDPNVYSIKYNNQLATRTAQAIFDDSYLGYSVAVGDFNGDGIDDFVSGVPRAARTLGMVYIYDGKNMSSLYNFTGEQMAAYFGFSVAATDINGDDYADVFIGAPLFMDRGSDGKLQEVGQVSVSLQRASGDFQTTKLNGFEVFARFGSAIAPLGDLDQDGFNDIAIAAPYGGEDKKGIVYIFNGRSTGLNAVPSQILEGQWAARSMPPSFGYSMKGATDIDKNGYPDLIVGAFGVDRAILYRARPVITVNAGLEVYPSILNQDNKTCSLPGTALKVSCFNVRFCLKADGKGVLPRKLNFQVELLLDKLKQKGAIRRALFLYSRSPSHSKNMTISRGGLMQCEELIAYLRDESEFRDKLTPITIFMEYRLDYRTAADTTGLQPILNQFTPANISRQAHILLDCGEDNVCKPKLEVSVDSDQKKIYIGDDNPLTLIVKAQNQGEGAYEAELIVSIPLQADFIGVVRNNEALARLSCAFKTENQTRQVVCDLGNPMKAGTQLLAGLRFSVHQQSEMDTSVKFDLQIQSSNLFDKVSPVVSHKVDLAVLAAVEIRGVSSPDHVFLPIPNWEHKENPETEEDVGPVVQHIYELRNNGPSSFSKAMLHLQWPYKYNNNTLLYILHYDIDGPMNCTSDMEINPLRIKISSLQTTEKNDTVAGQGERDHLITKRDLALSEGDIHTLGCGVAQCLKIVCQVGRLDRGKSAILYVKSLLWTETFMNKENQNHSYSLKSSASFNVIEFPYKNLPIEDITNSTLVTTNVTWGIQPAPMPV
- T1 sequence (P18084 24-719, chain 2 of 2): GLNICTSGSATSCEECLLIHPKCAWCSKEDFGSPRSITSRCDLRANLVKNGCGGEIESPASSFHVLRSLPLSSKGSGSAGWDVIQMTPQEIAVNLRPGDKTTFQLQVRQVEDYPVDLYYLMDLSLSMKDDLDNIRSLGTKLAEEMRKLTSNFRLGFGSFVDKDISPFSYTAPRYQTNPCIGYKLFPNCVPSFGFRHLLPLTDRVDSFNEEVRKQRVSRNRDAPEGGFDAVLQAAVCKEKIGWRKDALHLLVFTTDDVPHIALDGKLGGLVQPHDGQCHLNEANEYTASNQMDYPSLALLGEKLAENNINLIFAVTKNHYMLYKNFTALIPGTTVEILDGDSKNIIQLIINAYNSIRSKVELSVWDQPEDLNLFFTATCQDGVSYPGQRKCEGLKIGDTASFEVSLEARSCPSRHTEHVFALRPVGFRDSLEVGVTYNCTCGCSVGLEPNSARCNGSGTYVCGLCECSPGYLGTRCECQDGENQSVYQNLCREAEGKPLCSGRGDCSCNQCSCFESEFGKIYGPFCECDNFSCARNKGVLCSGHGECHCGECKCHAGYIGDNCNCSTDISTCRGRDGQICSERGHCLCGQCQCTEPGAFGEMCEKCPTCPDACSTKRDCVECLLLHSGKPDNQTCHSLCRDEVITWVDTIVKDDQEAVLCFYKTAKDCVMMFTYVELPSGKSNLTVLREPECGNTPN
- Method description: ELISA, coated integrin, anti-MICA-HRP
The following binders are shown together with reported αvβ5 signal/ng values.

Binder	αvβ5 signal/ng
soluble MICA generated from pKK46 (loop 1 insert extended 5.1sp) (designed binder, From pKK34 (His6, Glu125); secreted by 293T cells; also called 1-5.1sp) HHHHHHEPHSLRYNLTVLSWDGSVQSGFLTEVHLDGQPFLRCDRQKCRAKPQGQWAEDVLGNKTWDRETRDLTGNGKDLRMTLAHIKDQKEGLHSLQEIRVCEIHEDNSTRSSQHFYYDGELFLSQNLETEEWTMPQSSRAQTLAMNVRNFLKEDAMKTKTHYHAMHADCLQELRRYLKSGVVLRRTVPPMVNVTSGGSGGGSVTRGDTFTQSSGGSGGGVTCRASGFYPWNITLSWRQDGVSLSHDTQQWGDVLPDGNGTYQTWVATRICQGEEQRFTCYMEHSGNHSTHPVPSGK	13.3 signal/ng MICA
soluble MICA generated from pKK128 (loop 1 extended 5.1sp, loop 3 extended 3.2sp) (designed binder, From pKK115 (from pKK46: His6, Glu125); secreted by 293T cells; also called 1-5.1sp/3-3.2sp) HHHHHHEPHSLRYNLTVLSWDGSVQSGFLTEVHLDGQPFLRCDRQKCRAKPQGQWAEDVLGNKTWDRETRDLTGNGKDLRMTLAHIKDQKEGLHSLQEIRVCEIHEDNSTRSSQHFYYDGELFLSQNLETEEWTMPQSSRAQTLAMNVRNFLKEDAMKTKTHYHAMHADCLQELRRYLKSGVVLRRTVPPMVNVTSGGSGGGSVTRGDTFTQSSGGSGGGVTCRASGFYPWNITLSWRQDGVSLSHDTQQWGDVLPDGNGTYQTWVATRISGGSGGGSTSRGDHPRTQSGGSGGGCYMEHSGNHSTHPVPSGK	28.3 signal/ng MICA
soluble MICA generated from pKK130 (loop 1 extended 5.1sp, loop 3 extended 5.3sp) (designed binder, From pKK115 (from pKK46: His6, Glu125); secreted by 293T cells; also called 1-5.1sp/3-5.3sp) HHHHHHEPHSLRYNLTVLSWDGSVQSGFLTEVHLDGQPFLRCDRQKCRAKPQGQWAEDVLGNKTWDRETRDLTGNGKDLRMTLAHIKDQKEGLHSLQEIRVCEIHEDNSTRSSQHFYYDGELFLSQNLETEEWTMPQSSRAQTLAMNVRNFLKEDAMKTKTHYHAMHADCLQELRRYLKSGVVLRRTVPPMVNVTSGGSGGGSVTRGDTFTQSSGGSGGGVTCRASGFYPWNITLSWRQDGVSLSHDTQQWGDVLPDGNGTYQTWVATRISGGSGGGSHLARGDDLTYSGGSGGGCYMEHSGNHSTHPVPSGK	26.9 signal/ng MICA
soluble MICA generated by pSW273 (wild type loops, negative control) (ligand, Secreted by 293T cells; six His between signal peptide and residue 1; made from pSW267 (Glu125); also called WT) HHHHHHEPHSLRYNLTVLSWDGSVQSGFLTEVHLDGQPFLRCDRQKCRAKPQGQWAEDVLGNKTWDRETRDLTGNGKDLRMTLAHIKDQKEGLHSLQEIRVCEIHEDNSTRSSQHFYYDGELFLSQNLETEEWTMPQSSRAQTLAMNVRNFLKEDAMKTKTHYHAMHADCLQELRRYLKSGVVLRRTVPPMVNVTRSEASEGNITVTCRASGFYPWNITLSWRQDGVSLSHDTQQWGDVLPDGNGTYQTWVATRICQGEEQRFTCYMEHSGNHSTHPVPSGK	6.8 signal/ng MICA
